# TEST_SUMMARY: Dyad photophysical properties in toluene, excited at 405 nm
# Format: physicochemical
# EXPERIMENTAL_PARAMETERS: room temperature
MEASUREMENT_KIND: abs max Qy
Report field: quantity (unit follows the number).

Requested field: abs max Qy. Item: COC(=O)c1ccc(C2=c3ccc4[n]3[Zn][n]3c(ccc3C(c3ccc(C#Cc5ccc(C6=c7ccc8[n]7[Zn][n]7c(ccc7C=C7N=C(C=8)CC7(C)C)C=C7C=CC6=N7)cc5)cc3)=C3C=CC(=N3)C=4)C=C3C=CC2=N3)cc1 [P9-C4, methyl ester]
607 nm

Requested field: abs max Qy. Item: COC(=O)c1ccc(-c2c3nc(cc4ccc(cc5nc(cc6[nH]c2cc6C#Cc2ccc(CNC(=O)c6ccc(C7=C8C=CC(=N8)C=c8ccc9[n]8[Zn][n]8c(ccc87)C=C7C=CC(=N7)C=9)cc6)cc2)CC5(C)C)[nH]4)C=C3)cc1 [Dyad P4-C3]
656 nm

Requested field: abs max Qy. Item: COC(=O)c1ccc(-c2c3nc(cc4[nH]c(cc5nc(cc6[nH]c2cc6-c2ccc(CNC(=O)c6ccc(C7=C8C=CC(=N8)C=c8ccc9[n]8[Zn][n]8c(ccc87)C=C7C=CC(=N7)C=9)cc6)cc2)CC5(C)C)cc4-c2ccccc2)C=C3)cc1 [P2-C1, methyl ester]
652 nm

Requested field: abs max Qy. Item: COC(=O)c1c(C#Cc2ccc(-c3c4nc(cc5ccc(cc6nc(cc7ccc3[nH]7)C=C6)[nH]5)C=C4)cc2)c2cc3nc(c(OC)c4[nH]c(cc5nc(cc1[nH]2)CC5(C)C)c(C#Cc1ccc(-c2c5nc(cc6ccc(cc7nc(cc8ccc2[nH]8)C=C7)[nH]6)C=C5)cc1)c4C(=O)OC)CC3(C)C [Dyad P1-BC2]
795 nm

----------
Would you mind telling me the reported ext coeff (405 nm) of each entry?
# TEST_SUMMARY: Dyad photophysical properties in toluene, excited at 405 nm
# Assay type: physicochemical
# EXPERIMENTAL_PARAMETERS: at 405 nm, room temperature, in M-1 cm-1 (unit assumed)

Requested field: ext coeff (405 nm). Item: COC(=O)c1ccc(-c2c3nc(cc4[nH]c(cc5nc(cc6[nH]c2cc6-c2ccc(CNC(=O)c6ccc(C7=C8C=CC(=N8)C=c8ccc9[n]8[Zn][n]8c(ccc87)C=C7C=CC(=N7)C=9)cc6)cc2)CC5(C)C)cc4-c2ccccc2)C=C3)cc1 [P2-C1, methyl ester]
346,400

Requested field: ext coeff (405 nm). Item: COC(=O)c1ccc(-c2c3nc(cc4ccc(cc5nc(cc6[nH]c2cc6C#Cc2ccc(CNC(=O)c6ccc(C7=C8C=CC(=N8)C=c8ccc9[n]8[Zn][n]8c(ccc87)C=C7C=CC(=N7)C=9)cc6)cc2)CC5(C)C)[nH]4)C=C3)cc1
318,900

Requested field: ext coeff (405 nm). Item: COC(=O)c1ccc(-c2c3nc(cc4[nH]c(cc5nc(cc6[nH]c2cc6-c2ccc(CNC(=O)c6ccc(-c7c8nc(cc9ccc([nH]9)c(-c9c(C)cc(C)cc9C)c9nc(cc%10ccc7[nH]%10)C=C9)C=C8)cc6)cc2)CC5(C)C)cc4-c2ccccc2)C=C3)cc1
350,200

Requested field: ext coeff (405 nm). Item: COC(=O)c1ccc(-c2c3nc(cc4[nH]c(cc5nc(cc6[nH]c2cc6C#Cc2ccc(-c6c7nc(cc8ccc(cc9nc(cc%10ccc6[nH]%10)C=C9)[nH]8)C=C7)cc2)CC5(C)C)cc4C#Cc2ccc(-c4c5nc(cc6ccc(cc7nc(cc8ccc4[nH]8)C=C7)[nH]6)C=C5)cc2)C=C3)cc1 [Dyad P1-C6]
238,800

Requested field: ext coeff (405 nm). Item: COC(=O)c1ccc(-c2c(C(=O)OC)c3cc4nc(cc5[nH]c(c(OC)c6nc(cc2[nH]3)C(C)(C)C6)c(C(=O)OC)c5C#Cc2ccc(C3=C5C=CC(=N5)C=c5ccc6[n]5[Zn][n]5c(ccc53)C=C3C=CC(=N3)C=6)cc2)C(C)(C)C4)cc1
227,600

Requested field: ext coeff (405 nm). Item: COC(=O)c1ccc(-c2c3nc(cc4ccc(cc5nc(cc6[nH]c2cc6C#Cc2ccc(CNC(=O)c6ccc(-c7c8nc(cc9ccc([nH]9)c(-c9c(C)cc(C)cc9C)c9nc(cc%10ccc7[nH]%10)C=C9)C=C8)cc6)cc2)CC5(C)C)[nH]4)C=C3)cc1
171,800

Requested field: ext coeff (405 nm). Item: COC(=O)c1c(C#Cc2ccc(-c3c4nc(cc5ccc(cc6nc(cc7ccc3[nH]7)C=C6)[nH]5)C=C4)cc2)c2cc3nc(c(OC)c4[nH]c(cc5nc(cc1[nH]2)CC5(C)C)c(C#Cc1ccc(-c2c5nc(cc6ccc(cc7nc(cc8ccc2[nH]8)C=C7)[nH]6)C=C5)cc1)c4C(=O)OC)CC3(C)C [Dyad P1-BC2]
325,400

Requested field: ext coeff (405 nm). Item: COC(=O)c1ccc(-c2c3nc(cc4ccc(cc5nc(cc6[nH]c2cc6C#Cc2ccc(C6=C7C=CC(=N7)C=c7ccc8[n]7[Zn][n]7c(ccc76)C=C6C=CC(=N6)C=8)cc2)CC5(C)C)[nH]4)C=C3)cc1
241,700

Requested field: ext coeff (405 nm). Item: COc1c2nc(cc3ccc([nH]3)c(-c3ccc(-c4c5nc(cc6ccc(cc7nc(cc8ccc4[nH]8)C=C7)[nH]6)C=C5)cc3)c3nc(cc4ccc1[nH]4)C(C)(C)C3)C(C)(C)C2
118,100

Requested field: ext coeff (405 nm). Item: COC(=O)c1ccc(C#Cc2cc3cc4nc(cc5[nH]c(cc6nc(c(OC)c2[nH]3)CC6(C)C)cc5C#Cc2ccc(-c3c5nc(cc6ccc(cc7nc(cc8ccc3[nH]8)C=C7)[nH]6)C=C5)cc2)CC4(C)C)cc1 [Dyad P1-BC1]
276,800

Requested field: ext coeff (405 nm). Item: COC(=O)c1ccc(C2=c3ccc4[n]3[Zn][n]3c(ccc3C(c3ccc(C#Cc5ccc(C6=c7ccc8[n]7[Zn][n]7c(ccc7C=C7N=C(C=8)CC7(C)C)C=C7C=CC6=N7)cc5)cc3)=C3C=CC(=N3)C=4)C=C3C=CC2=N3)cc1
181,500

Requested field: ext coeff (405 nm). Item: COC(=O)c1ccc(-c2c3nc(cc4ccc(cc5nc(cc6[nH]c2cc6C#Cc2ccc(-c6c7nc(cc8ccc([nH]8)c(-c8c(C)cc(C)cc8C)c8nc(cc9ccc6[nH]9)C=C8)C=C7)cc2)CC5(C)C)[nH]4)C=C3)cc1
227,900

----------
Would you mind telling me the reported brightness (405 nm) of each entry?
# TEST_SUMMARY: Dyad photophysical properties in toluene, excited at 405 nm
# Type: physicochemical
# EXPERIMENTAL_PARAMETERS: molar absorption coefficient x fluorescence quantum yield, at 405 nm, in M⁻¹cm⁻¹

Requested field: brightness (405 nm). Item: COC(=O)c1ccc(-c2c(C(=O)OC)c3cc4nc(cc5[nH]c(c(OC)c6nc(cc2[nH]3)C(C)(C)C6)c(C(=O)OC)c5C#Cc2ccc(C3=C5C=CC(=N5)C=c5ccc6[n]5[Zn][n]5c(ccc53)C=C3C=CC(=N3)C=6)cc2)C(C)(C)C4)cc1
46,569

Requested field: brightness (405 nm). Item: COC(=O)c1ccc(-c2c3nc(cc4ccc(cc5nc(cc6[nH]c2cc6C#Cc2ccc(CNC(=O)c6ccc(-c7c8nc(cc9ccc([nH]9)c(-c9c(C)cc(C)cc9C)c9nc(cc%10ccc7[nH]%10)C=C9)C=C8)cc6)cc2)CC5(C)C)[nH]4)C=C3)cc1
13,934

Requested field: brightness (405 nm). Item: COC(=O)c1ccc(-c2c3nc(cc4ccc(cc5nc(cc6[nH]c2cc6C#Cc2ccc(C6=C7C=CC(=N7)C=c7ccc8[n]7[Zn][n]7c(ccc76)C=C6C=CC(=N6)C=8)cc2)CC5(C)C)[nH]4)C=C3)cc1
80,872

Requested field: brightness (405 nm). Item: COC(=O)c1ccc(C#Cc2cc3cc4nc(cc5[nH]c(cc6nc(c(OC)c2[nH]3)CC6(C)C)cc5C#Cc2ccc(-c3c5nc(cc6ccc(cc7nc(cc8ccc3[nH]8)C=C7)[nH]6)C=C5)cc2)CC4(C)C)cc1 [Dyad P1-BC1]
64,405

Requested field: brightness (405 nm). Item: COC(=O)c1ccc(-c2c3nc(cc4[nH]c(cc5nc(cc6[nH]c2cc6-c2ccc(CNC(=O)c6ccc(C7=C8C=CC(=N8)C=c8ccc9[n]8[Zn][n]8c(ccc87)C=C7C=CC(=N7)C=9)cc6)cc2)CC5(C)C)cc4-c2ccccc2)C=C3)cc1 [P2-C1, methyl ester]
87,748

Requested field: brightness (405 nm). Item: COC(=O)c1ccc(-c2c3nc(cc4[nH]c(cc5nc(cc6[nH]c2cc6-c2ccc(CNC(=O)c6ccc(-c7c8nc(cc9ccc([nH]9)c(-c9c(C)cc(C)cc9C)c9nc(cc%10ccc7[nH]%10)C=C9)C=C8)cc6)cc2)CC5(C)C)cc4-c2ccccc2)C=C3)cc1
84,723

Requested field: brightness (405 nm). Item: COC(=O)c1c(C#Cc2ccc(-c3c4nc(cc5ccc(cc6nc(cc7ccc3[nH]7)C=C6)[nH]5)C=C4)cc2)c2cc3nc(c(OC)c4[nH]c(cc5nc(cc1[nH]2)CC5(C)C)c(C#Cc1ccc(-c2c5nc(cc6ccc(cc7nc(cc8ccc2[nH]8)C=C7)[nH]6)C=C5)cc1)c4C(=O)OC)CC3(C)C [Dyad P1-BC2]
60,845

Requested field: brightness (405 nm). Item: COC(=O)c1ccc(-c2c3nc(cc4[nH]c(cc5nc(cc6[nH]c2cc6C#Cc2ccc(-c6c7nc(cc8ccc(cc9nc(cc%10ccc6[nH]%10)C=C9)[nH]8)C=C7)cc2)CC5(C)C)cc4C#Cc2ccc(-c4c5nc(cc6ccc(cc7nc(cc8ccc4[nH]8)C=C7)[nH]6)C=C5)cc2)C=C3)cc1 [Dyad P1-C6]
80,567
